The values you see were collected from patent US20040127492A1.

- target: MK-3 (Homo sapiens)
- Sequence (Q16644 whole entry, species assumed): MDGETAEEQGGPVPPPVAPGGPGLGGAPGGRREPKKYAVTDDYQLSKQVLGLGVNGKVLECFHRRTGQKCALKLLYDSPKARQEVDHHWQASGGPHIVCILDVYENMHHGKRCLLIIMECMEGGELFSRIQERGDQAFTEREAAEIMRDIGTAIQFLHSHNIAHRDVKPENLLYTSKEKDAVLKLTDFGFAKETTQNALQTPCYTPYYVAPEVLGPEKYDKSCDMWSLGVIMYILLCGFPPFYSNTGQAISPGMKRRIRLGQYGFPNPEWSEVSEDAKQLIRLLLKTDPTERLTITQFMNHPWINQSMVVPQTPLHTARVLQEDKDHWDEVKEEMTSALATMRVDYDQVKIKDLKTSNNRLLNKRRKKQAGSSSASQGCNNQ
- experiment-summary: MK-3 inhibition IC50 (similar method to MK-2, with appropriate modifications)
- Assay type: biochemical
- condition-set: read-out: MK-3 Avg. IC50
quantity-name: IC50 (µM)

Examples with answers:
{"columns": ["compound", "target", "units-of-measure", "IC50"],
 "data": [
  ["CC(C)(C)c1ccc(-c2cc3c(cn2)CCc2c-3nn(CCCN)c2C(=O)O)cc1 [Example 22]", "MK-3 (Homo sapiens)", "µM", 0.426],
  ["O=C1NC(CO)Cn2nc3c(c21)CCc1cnccc1-3 (centres unmarked) [Example 71]", "MK-3 (Homo sapiens)", "µM", 35],
  ["CC(C)(C)c1ccc(-c2ccc(CCNCCCn3nc4c(c3C(=O)O)CCc3cnccc3-4)cc2)cc1 [Example 33]", "MK-3 (Homo sapiens)", "µM", 7.22],
  ["O=C(O)c1c2c(nn1CCCNCCc1ccc(-c3ccccc3Cl)cc1)-c1ccncc1CC2 [Example 32]", "MK-3 (Homo sapiens)", "µM", 9.61],
  ["CN1CCN(c2cc3c(cn2)CCc2c-3nn3c2C(=O)NCC3)CC1 [Example 245]", "MK-3 (Homo sapiens)", "µM", 108],
  ["O=C(O)c1c2c(nn1CCCNCCc1ccc(-c3csc4ccccc34)cc1)-c1ccncc1CC2 [Example 60]", "MK-3 (Homo sapiens)", "µM", 15.6]
]}

P: O=C1NC(CNCCc2cccs2)Cn2nc3c(c21)CCc1cnccc1-3 (centres unmarked) [Example 73]
Q: O=C1NCC(CCCNCCc2ccc(Cl)cc2)n2nc3c(c21)CCc1cnccc1-3 (centres unmarked) [Example 178]
Lower value of IC50 belongs to which: P or Q ? Answer with the label corresponding to your selection.
P
(P: 27.8 µM, Q: 40.4 µM)
